All values here come from patent US7429660B2.

target-system: ATM protein immunoprecipitated from HeLa cell nuclear extract (Homo sapiens, UniProt Q13315)
Construct: ATM protein was immunoprecipitated from HeLa cell nuclear extract; endogenous in cells
Sequence (Q13315 whole entry): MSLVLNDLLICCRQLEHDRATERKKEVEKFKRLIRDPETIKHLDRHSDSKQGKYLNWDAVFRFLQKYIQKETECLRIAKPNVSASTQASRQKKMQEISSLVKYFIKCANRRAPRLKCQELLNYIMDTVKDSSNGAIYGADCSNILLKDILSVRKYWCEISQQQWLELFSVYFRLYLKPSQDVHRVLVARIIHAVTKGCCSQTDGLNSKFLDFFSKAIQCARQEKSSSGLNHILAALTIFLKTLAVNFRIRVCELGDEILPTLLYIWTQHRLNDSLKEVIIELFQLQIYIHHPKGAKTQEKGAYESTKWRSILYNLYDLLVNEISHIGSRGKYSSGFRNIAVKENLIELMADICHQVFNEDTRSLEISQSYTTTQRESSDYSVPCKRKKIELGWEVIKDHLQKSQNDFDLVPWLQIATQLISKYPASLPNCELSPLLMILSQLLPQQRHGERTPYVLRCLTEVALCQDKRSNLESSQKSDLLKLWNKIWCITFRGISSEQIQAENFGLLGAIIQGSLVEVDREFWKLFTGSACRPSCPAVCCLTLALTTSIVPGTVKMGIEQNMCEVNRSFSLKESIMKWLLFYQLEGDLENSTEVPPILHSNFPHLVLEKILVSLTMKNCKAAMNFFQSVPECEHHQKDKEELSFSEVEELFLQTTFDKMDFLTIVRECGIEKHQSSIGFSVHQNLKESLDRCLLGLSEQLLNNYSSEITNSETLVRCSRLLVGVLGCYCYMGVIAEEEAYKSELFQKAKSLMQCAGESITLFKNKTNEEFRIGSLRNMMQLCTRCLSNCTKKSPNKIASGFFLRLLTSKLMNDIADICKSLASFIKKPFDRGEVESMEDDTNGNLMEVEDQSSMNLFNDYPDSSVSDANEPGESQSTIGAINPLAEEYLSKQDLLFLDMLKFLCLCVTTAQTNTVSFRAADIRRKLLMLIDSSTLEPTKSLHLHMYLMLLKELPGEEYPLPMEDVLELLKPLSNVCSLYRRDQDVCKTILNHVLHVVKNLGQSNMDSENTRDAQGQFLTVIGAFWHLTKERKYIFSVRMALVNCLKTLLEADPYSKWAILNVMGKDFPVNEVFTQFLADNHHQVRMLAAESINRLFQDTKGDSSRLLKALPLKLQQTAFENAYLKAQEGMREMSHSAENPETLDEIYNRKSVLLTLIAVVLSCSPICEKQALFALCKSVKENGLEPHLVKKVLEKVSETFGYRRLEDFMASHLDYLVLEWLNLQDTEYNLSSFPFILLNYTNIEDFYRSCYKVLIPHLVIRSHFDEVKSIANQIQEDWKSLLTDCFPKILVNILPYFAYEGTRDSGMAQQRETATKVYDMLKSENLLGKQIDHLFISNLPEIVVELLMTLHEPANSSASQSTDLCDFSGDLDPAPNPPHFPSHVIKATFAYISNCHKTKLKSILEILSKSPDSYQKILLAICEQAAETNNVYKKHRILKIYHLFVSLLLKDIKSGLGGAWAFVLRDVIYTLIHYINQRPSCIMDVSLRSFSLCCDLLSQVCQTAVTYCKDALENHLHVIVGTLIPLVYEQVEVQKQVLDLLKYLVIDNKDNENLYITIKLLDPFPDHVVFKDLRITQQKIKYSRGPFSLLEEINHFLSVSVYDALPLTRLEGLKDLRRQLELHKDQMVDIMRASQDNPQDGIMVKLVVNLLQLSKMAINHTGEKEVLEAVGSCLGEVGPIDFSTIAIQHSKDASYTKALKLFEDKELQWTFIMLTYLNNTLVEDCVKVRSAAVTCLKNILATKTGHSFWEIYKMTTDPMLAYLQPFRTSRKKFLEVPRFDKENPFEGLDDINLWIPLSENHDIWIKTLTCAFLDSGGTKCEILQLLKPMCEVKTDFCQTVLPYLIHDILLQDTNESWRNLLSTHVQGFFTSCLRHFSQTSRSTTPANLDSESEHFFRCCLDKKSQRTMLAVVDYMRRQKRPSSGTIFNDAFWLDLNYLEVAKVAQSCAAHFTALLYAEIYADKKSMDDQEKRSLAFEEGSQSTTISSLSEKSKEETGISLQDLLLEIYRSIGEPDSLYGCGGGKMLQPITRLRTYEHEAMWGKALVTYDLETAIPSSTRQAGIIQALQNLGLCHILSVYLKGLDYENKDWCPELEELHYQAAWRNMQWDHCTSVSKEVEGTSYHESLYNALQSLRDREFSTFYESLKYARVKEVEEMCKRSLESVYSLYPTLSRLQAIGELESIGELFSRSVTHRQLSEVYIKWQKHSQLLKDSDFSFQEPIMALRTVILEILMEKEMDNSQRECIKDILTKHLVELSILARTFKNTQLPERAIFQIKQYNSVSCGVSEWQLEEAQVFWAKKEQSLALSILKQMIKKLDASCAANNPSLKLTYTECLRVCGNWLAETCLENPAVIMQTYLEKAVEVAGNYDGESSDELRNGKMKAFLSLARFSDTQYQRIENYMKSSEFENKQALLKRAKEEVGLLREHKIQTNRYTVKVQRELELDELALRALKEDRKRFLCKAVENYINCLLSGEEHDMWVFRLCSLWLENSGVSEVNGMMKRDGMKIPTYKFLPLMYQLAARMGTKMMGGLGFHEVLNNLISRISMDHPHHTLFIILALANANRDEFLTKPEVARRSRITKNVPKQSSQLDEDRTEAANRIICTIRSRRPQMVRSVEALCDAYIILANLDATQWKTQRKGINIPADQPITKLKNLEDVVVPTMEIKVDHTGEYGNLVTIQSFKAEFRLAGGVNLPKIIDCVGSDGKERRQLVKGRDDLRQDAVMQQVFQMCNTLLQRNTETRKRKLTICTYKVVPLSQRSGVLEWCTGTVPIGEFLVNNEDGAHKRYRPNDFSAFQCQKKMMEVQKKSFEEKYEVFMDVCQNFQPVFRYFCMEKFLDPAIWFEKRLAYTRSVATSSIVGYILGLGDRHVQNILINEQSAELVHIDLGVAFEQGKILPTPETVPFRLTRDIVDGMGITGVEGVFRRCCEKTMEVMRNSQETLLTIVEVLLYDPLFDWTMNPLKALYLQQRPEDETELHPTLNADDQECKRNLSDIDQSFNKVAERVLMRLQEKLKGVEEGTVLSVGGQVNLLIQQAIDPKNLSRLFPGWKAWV
experimental-protocol: In vitro ATM inhibition assay (phosphorylation of GSTp53N66 on serine 15, chemiluminescent detection); further: tested normally from 100 µM down to 0.1 nM
recorded-conditions: read-out: IC50 values (the concentration at which 50% of the enzyme activity is inhibited), ATM inhibition
result-type: IC50

Example results:
Note IC50 for the compound shown: "O=C(CCN1CCN(c2ccccn2)CC1)Nc1ccc2c(c1)Cc1cccc(-c3cc(=O)cc(N4CCOCC4)o3)c1S2"
< 0.2 µM

Note IC50 for the compound shown: "CC(C)N(CCNCCCOc1ccc(-c2cc(=O)cc(N3CCOCC3)o2)c2c1Sc1ccccc1S2)C(C)C"
< 0.2 µM

The record that follows has no IC50 shown yet.
Note IC50 for the compound shown: "COCCN1CCN(C(=O)c2ccc3c(c2)Sc2cccc(-c4cc(=O)cc(N5CCOCC5)o4)c2S3)CC1"
< 0.2 µM
